Experiment notes: differential killing of epithelial or mesenchymal cells, primary screen, imaging, PC-3E GFP, TEM4-18 mCherry, co-culture (AID 1345086);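 note: cells exposed to compound for 72 h before imaging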
Run parameters: imaging cell counts, measured here: mesenchymal TEM4-18 mCherry cell survival, at 1 µM
Readout label: normalised cell number

Compound: C=CC(C1=CC(=O)C(OC)=CC1=O)c1ccccc1 (stereo not given)
Numeric result: 1.08

Compound: COc1ccc2c(c1)OC[C@@H](Cc1ccc(OC)c(OC)c1)[C@H]2O
Numeric result: 1.07

Compound: OCc1c[nH]c2ccccc12
Numeric result: 0.84

Compound: Cc1cc(O)c(C=O)c(O)c1C(=O)O
Numeric result: 0.95

Compound: CCn1cc(C(=O)O)c(=O)c2ccc(C)nc21
Numeric result: 0.97

Compound: CCN(CC)CCc1nc(-c2ccccc2)no1
Numeric result: 1.07

Compound: C[C@H]1[C@H](NC(=O)/C(=N/OC(C)(C)C(=O)O)c2csc(N)n2)C(=O)N1S(=O)(=O)O (stereo in doubt)
Numeric result: 1.08

Compound: O=C(O)[C@H](O)[C@@H](O)[C@H](O[C@@H]1O[C@H](CO)[C@H](O)[C@H](O)[C@H]1O)[C@H](O)CO
Numeric result: 1.23

Compound: O=c1cc[nH]c(=O)[nH]1
Numeric result: 1.16

Compound: CCCCCCCCCCOc1cc2c(=O)c(C(=O)OCC)c[nH]c2cc1OCC
Numeric result: 0.98

Compound: c1ccc2c(c1)CN1CCCC1=N2
Numeric result: 1.06

Compound: CC1(C)S[C@@H]2C(N3C(=O)[C@@H](c4ccccc4)NC3(C)C)C(=O)N2[C@H]1C(=O)O (stereo not given in full)
Numeric result: 1.08

Compound: CC(=O)Nc1ccc(OC(=O)c2ccccc2O)cc1
Numeric result: 1.08

Compound: COc1cc(C)c(C(=O)Oc2cc(C)c(C(=O)O)c(O)c2C)c(OC)c1C
Numeric result: 0.98

Compound: O=C(O)CCCN1C(=O)c2cccc3cccc(c23)C1=O
Numeric result: 1.06

Compound: CC(=O)/C(=C\c1ccccc1)CC(=O)O
Numeric result: 1.16

Compound: CC(=O)O[C@@H]1CC2C(C)(CC[C@H](O)C2(C)C)C2CC[C@]3(C)C(=CC(=O)O[C@H]3c3ccoc3)C21C (stereo not given in full)
Numeric result: 1.1

Compound: COc1ccc([C@H]2Oc3cc(OC)cc(OC)c3C[C@H]2O)cc1
Numeric result: 0.82

Compound: NC(N)=NC(N)=Nc1ccccc1
Numeric result: 1.2

Compound: O=C(/C=C/c1ccccc1)c1ccc(O)cc1
Numeric result: 0.79

Compound: O=C(Oc1cc(O)cc2c1C[C@@H](OC(=O)c1cc(O)c(O)c(O)c1)[C@@H](c1cc(O)c(O)c(O)c1)O2)c1cc(O)c(O)c(O)c1
Numeric result: 0.99

Compound: COc1cc(OC)c2c(OC)c(-c3ccc4c(c3)OCO4)c(=O)oc2c1
Numeric result: 0.94

Compound: COc1cc(OC)c(-c2c(OC)cc(OC)cc2OC)c(OC)c1
Numeric result: 1.04

Compound: O=C(O)Cc1ccc(-c2ccccc2)cc1
Numeric result: 1.04

Compound: O=C1NS(=O)(=O)c2ccccc21
Numeric result: 1.17

Compound: O=C1Cc2cc(CCN3CCN(c4nsc5ccccc45)CC3)c(Cl)cc2N1
Numeric result: 1.1

Compound: Cc1nc(Nc2ncc(C(=O)Nc3c(C)cccc3Cl)s2)cc(N2CCN(CCO)CC2)n1
Numeric result: 0.58

Compound: CN(C(=O)CN(CCO)CC(=O)N(C)C(C)(C)Cc1ccccc1)C(C)(C)Cc1ccccc1
Numeric result: 1.29

Compound: O=C(O)c1cc2cc(Cl)ccc2[nH]1
Numeric result: 1.21

Compound: COc1ccc2c(=O)c(OC)c(-c3ccccc3)oc2c1
Numeric result: 1.02

Compound: CC1(O)CCC(C(C)(C)O)CC1 (stereo not given)
Numeric result: 0.97

Compound: O=C1OC(CN2CCOCC2)CN1/N=C/c1ccc([N+](=O)[O-])o1 (stereo not given)
Numeric result: 1.1

Compound: O=c1cc(-c2cc(O)c(O)c(O)c2)oc2cc(O)cc(O)c12
Numeric result: 1.12

Compound: COc1cc(/C=C/C(=O)O)ccc1O
Numeric result: 1.05

Compound: COC(=O)c1cc(=O)c(O)c2c(O)c(O)ccc2c1
Numeric result: 1.06

Compound: CC(=O)Oc1cccc(C(=O)O)c1OC(C)=O
Numeric result: 0.86

Compound: CC(=O)N[C@@H](CC(C)C)C(=O)O
Numeric result: 0.91

Compound: COc1cc(Cc2cnc(N)nc2N)cc(OC)c1OC
Numeric result: 1.02

Compound: COc1cc2c(cc1OC)C(=O)OC2
Numeric result: 0.94

Compound: COc1cc2c(cc1OC)C1C(=O)c3c(cc4c(c3O)C=CC(C)(C)O4)OC1CO2 (stereo not given)
Numeric result: 0.79

Compound: COC(=O)[C@@H]1OC(=O)C2OC23[C@@]1(C)CCC1[C@]2(C)C(C[C@@H](O)[C@]13C)C(C)(C)[C@H](OC(C)=O)C[C@@H]2OC(C)=O (stereo not given in full)
Numeric result: 1.02

Compound: O=C(Oc1cccc2cccnc12)c1ccccc1
Numeric result: 1.13

Compound: O=C(O)CCc1nc(-c2ccccc2)c(-c2ccccc2)o1
Numeric result: 1.18

Compound: CC(=O)OCC(=O)[C@@]1(O)CCC2C3CCC4=CC(=O)CC[C@]4(C)C3[C@@H](O)C[C@@]21C (stereo not given in full)
Numeric result: 1.44

Compound: O=c1cc(-c2ccc(O)cc2)oc2cc(O[C@@H]3O[C@H](CO)[C@@H](O)[C@H](O)[C@H]3O[C@@H]3OC[C@](O)(CO)[C@H]3O)cc(O)c12
Numeric result: 1.03
